Reported Ki by item:
# subject of test: human PDE2A1 (Homo sapiens)
# Construct: GST; purchased BPS Bioscience (San Diego, Calif.) 60020; host or cells: insect cells
# Sequence (O00408 1-920 isoform O00408-2): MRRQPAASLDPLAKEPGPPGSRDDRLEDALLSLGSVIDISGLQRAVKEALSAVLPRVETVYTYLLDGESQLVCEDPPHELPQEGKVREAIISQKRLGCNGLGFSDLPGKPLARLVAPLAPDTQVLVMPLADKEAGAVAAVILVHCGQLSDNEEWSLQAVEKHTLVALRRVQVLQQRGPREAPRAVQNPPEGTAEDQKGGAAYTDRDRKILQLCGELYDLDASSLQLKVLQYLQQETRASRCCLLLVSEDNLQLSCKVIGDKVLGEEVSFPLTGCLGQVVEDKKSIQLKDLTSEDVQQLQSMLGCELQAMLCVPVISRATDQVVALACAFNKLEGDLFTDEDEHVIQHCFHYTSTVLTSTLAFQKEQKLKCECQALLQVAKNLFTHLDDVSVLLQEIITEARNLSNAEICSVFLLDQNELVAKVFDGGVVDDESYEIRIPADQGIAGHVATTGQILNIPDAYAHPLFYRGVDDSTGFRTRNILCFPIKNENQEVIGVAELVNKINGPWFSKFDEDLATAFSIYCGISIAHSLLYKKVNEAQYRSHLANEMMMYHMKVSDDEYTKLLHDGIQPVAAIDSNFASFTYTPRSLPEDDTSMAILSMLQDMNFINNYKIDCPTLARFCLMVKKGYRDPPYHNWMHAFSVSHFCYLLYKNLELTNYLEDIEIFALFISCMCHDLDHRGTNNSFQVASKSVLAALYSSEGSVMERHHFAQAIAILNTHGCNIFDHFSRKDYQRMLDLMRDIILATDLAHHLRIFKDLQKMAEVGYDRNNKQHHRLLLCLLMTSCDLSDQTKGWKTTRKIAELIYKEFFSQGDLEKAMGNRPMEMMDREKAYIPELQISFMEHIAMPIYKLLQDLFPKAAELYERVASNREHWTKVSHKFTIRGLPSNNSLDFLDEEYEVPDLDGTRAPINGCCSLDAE
# protocol notes: IMAP FP PDE assay, human PDE2A1
# Type: biochemical
# measurement parameters: Lab B; read-out: Human PDE2 Ki (nM) Lab B

- compound: "CC(c1ccc(C(F)(F)F)cc1)n1nc(CO)c2c(=O)[nH]c(CC3CC3)nc21 (single isomer, unassigned) [Example 309]"
  subject of test: "human PDE2A1 (Homo sapiens)"
  Ki / nM: 420
- compound: "Cc1nc2c(c(C(F)F)nn2C(C)c2ccc(C3(C(F)(F)F)CC3)cc2)c(=O)[nH]1 (stereo not shown) [Example 164]"
  subject of test: "human PDE2A1 (Homo sapiens)"
  Ki / nM: 8.2
- compound: "Cc1nc2c(c(CO)nn2C(C)c2ccc(SC(F)(F)F)cc2)c(=O)[nH]1 (single isomer, unassigned) [Example 22]"
  subject of test: "human PDE2A1 (Homo sapiens)"
  Ki / nM: 125
- compound: "Cc1nc2c(c(CC(C)O)nn2C(C)c2ccc(C(F)(F)F)cc2)c(=O)[nH]1 (single isomer, unassigned) [Example 245]"
  subject of test: "human PDE2A1 (Homo sapiens)"
  Ki / nM: 72
- compound: "Cc1nc2c(c(CC#N)nn2C(C)c2ccc(C(F)(F)F)cc2)c(=O)[nH]1 (single isomer, unassigned) [Example 281]"
  subject of test: "human PDE2A1 (Homo sapiens)"
  Ki / nM: 2
- compound: "CCc1nc2c(c(CO)nn2C(C)c2ccc(C(F)(F)F)cc2)c(=O)[nH]1 (single isomer, unassigned) [Example 302]"
  subject of test: "human PDE2A1 (Homo sapiens)"
  Ki / nM: 116
- compound: "Cc1nc2c(c(C(=O)NCC(F)(F)F)nn2C(C)c2ccc(C(F)(F)F)cc2)c(=O)[nH]1 (single isomer, unassigned) [Example 268]"
  subject of test: "human PDE2A1 (Homo sapiens)"
  Ki / nM: 311
- compound: "COc1ccc(Cc2nc3c(c(CF)nn3C(C)c3ccc(C(F)(F)F)cc3)c(=O)[nH]2)cc1 (single isomer, unassigned) [Example 219]"
  subject of test: "human PDE2A1 (Homo sapiens)"
  Ki / nM: 0.96
- compound: "Cc1nc2c(c(CC(F)(F)F)nn2C(c2ccc(C(F)(F)F)cc2)C2(C)CC2)c(=O)[nH]1 (single isomer, unassigned) [Example 59]"
  subject of test: "human PDE2A1 (Homo sapiens)"
  Ki / nM: 23
- compound: "Cc1nc2c(c([C@@H](C)CO)nn2[C@@H](C)c2ccc(C(F)(F)F)cc2)c(=O)[nH]1 (single isomer, unassigned) [Example 320]"
  subject of test: "human PDE2A1 (Homo sapiens)"
  Ki / nM: 1.2
- compound: "Cc1nc2c(c(CO)nn2C(c2ccc(OC(F)(F)F)c(F)c2)C(C)C)c(=O)[nH]1 (single isomer, unassigned) [Example 126]"
  subject of test: "human PDE2A1 (Homo sapiens)"
  Ki / nM: 5.7
- compound: "Cc1nc2c(c(C3CCCO3)nn2C(C)c2ccc(C(F)(F)F)cc2)c(=O)[nH]1 (single isomer, unassigned) [Example 71]"
  subject of test: "human PDE2A1 (Homo sapiens)"
  Ki / nM: 111
